The values you see were collected from patent US12134610B2.

- assayed-system: SST2 (Homo sapiens, UniProt P30874)
- Construct: host or cells: PathHunter CHO-K1 SST2 cells
- Sequence (P30874 whole entry): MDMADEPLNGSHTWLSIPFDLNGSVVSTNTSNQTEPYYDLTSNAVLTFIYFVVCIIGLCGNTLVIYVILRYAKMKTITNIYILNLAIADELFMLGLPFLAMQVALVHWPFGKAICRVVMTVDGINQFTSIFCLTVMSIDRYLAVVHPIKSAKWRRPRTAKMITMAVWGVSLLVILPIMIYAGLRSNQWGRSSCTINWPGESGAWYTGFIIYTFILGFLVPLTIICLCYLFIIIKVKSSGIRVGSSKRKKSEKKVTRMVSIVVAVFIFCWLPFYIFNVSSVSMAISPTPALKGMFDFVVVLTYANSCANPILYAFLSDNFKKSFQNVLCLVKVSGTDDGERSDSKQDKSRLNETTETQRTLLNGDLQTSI
- assay-details: PathHunter CHO-K1 SST2 internalization assay
- Format: cell-based
- conditions-used: PathHunter CHO-K1 SST2, 90 min; read-out: Internalization EC50
- Experimental: SMDCs of the present invention were assessed in vitro using the human PathHunter CHO-K1 SST2 β-arrestin2 and PathHunter CHO-K1 SST2 Internalization Assays from DiscoverX. The CHO-K cells were seeded in 20 μLs of cell culture medium in a white-walled 384 well tissue culture-compatible plate at a density of 2500 cells/well. […] Luminescence was measured using a Tecan plate reader. […]
pEC50: −log10 of the molar value.
pEC50 overview

- molecule: "CC[C@H](C)[C@@H]([C@@H](CC(=O)N1CCC[C@H]1[C@H](OC)[C@@H](C)C(=O)N[C@H](C)[C@@H](O)c1ccccc1)OC)N(C)C(=O)[C@@H](NC(=O)[C@H](C(C)C)N(C)C(=O)OCc1ccc(NC(=O)[C@H](C)NC(=O)[C@@H](NC(=O)CCOCCOCCOCCOCCC(=O)NCCNc2ncc(-c3cc(C)cc(F)c3)c(N3CCC(N)CC3)c2-c2nc3ccc(Cl)cc3[nH]2)C(C)C)cc1C(=O)NCCN)C(C)C [Compound 85]"
  pEC50: 7.89
- molecule: "CC[C@H](C)[C@@H]([C@@H](CC(=O)N1CCC[C@H]1[C@H](OC)[C@@H](C)C(=O)N[C@H](C)[C@@H](O)c1ccccc1)OC)N(C)C(=O)[C@@H](NC(=O)[C@H](C(C)C)N(C)C(=O)OCc1ccc(NC(=O)[C@H](CCCNC(N)=O)NC(=O)[C@@H](NC(=O)CCOCCOCCOCCC(=O)NCCNc2ncc(-c3cc(C)cc(F)c3)c(N3CCC(N)CC3)c2-c2nc3ccc(Cl)cc3[nH]2)C(C)C)c(O[C@@H]2O[C@H](C(=O)O)[C@@H](O)[C@H](O)[C@H]2O)c1)C(C)C [Compound 138]"
  pEC50: 8.28
- molecule: "CC[C@H](C)[C@@H]([C@@H](CC(=O)N1CCC[C@H]1[C@H](OC)[C@@H](C)C(=O)N[C@H](C)[C@@H](O)c1ccccc1)OC)N(C)C(=O)[C@@H](NC(=O)[C@H](C(C)C)N(C)C(=O)OCc1ccc(NC(=O)[C@H](CCCNC(N)=O)NC(=O)[C@@H](NC(=O)[C@H](CCC(N)=O)NC(=O)CCOCCC(=O)NCCNc2ncc(-c3cc(C)cc(F)c3)c(N3CCC(N)CC3)c2-c2nc3ccc(Cl)cc3[nH]2)C(C)C)c(O[C@@H]2O[C@H](C(=O)O)[C@@H](O)[C@H](O)[C@H]2O)c1)C(C)C [Compound 151]"
  pEC50: 8.66
